- ASSAY NAME: sensitizers of A549 cells to miR-34 induction, primary screen, imaging, A549 dox-inducible miR-34, nuclei and caspase counts (AID 1347080); also: test concentration not given here
- CONDITION CONTEXT: A549 miR-34 inducible, Hoechst nuclei count, 48 h; stronger effect = lower value; cell number ratio, induced over uninduced
ASSAY READOUT: fold change
Reply with the value as a number alone.

Consider the reported fold change for these compounds:
COMPOUND | fold change
S=C=Nc1cccc(C2(N3CCCCC3)CCCCC2)c1 | 0.942
Clc1ccc(C(Cn2ccnc2)OCc2ccc(Sc3ccccc3)cc2)c(Cl)c1 (stereo unspecified) | 0.851
c1ccc2sc(C3(N4CCCCC4)CCCCC3)cc2c1 | 0.965

Please give the documented fold change of CNC1CC(c2ccc(Cl)c(Cl)c2)c2ccccc21 (stereo unspecified) 0.956

Values compiled from PubChem BioAssay.
